- Test system: Rattus norvegicus
- EXPERIMENTAL DETAILS: Minimum effective dose on oral administration
- Format: functional
- SETTINGS: read-out: MED
Assign minimal effective dose to each entry below.
Give bare numbers, in mg/kg.

CNC1=Nc2ccc(Cl)cc2C(c2ccccc2)=[N+]([O-])C1 [CHLORDIAZEPOXIDE] ... 2

List reported minimal effective dose for each of these molecules:
1. CCCc1c(OC)nc2nc(-c3nnc(C)o3)cn2c1C
2. CCc1c(OC)nc2nc(-c3nnc(C)o3)cn2c1C
3. CCc1c(SC)nc2nc(-c3nnc(C)o3)cn2c1C
4. CCc1nnc(-c2cn3c(C)c(CC)c(OC)nc3n2)o1

**A:**
[10, 2, 5, 50]

**Q:** Name the value of minimal effective dose reported for CCc1c(OC)nc2nc(-c3noc(C)n3)c(Br)n2c1C when tested on Rattus norvegicus.
**A:** 10

* * *

- MEASURED ON: GABA-A receptor; anion channel
- EXPERIMENTAL DETAILS: Binding affinity towards benzodiazepine receptor by the displacement of [3H]flunitrazepam from rat brain preparations.
Threshold 200 nM: IC50 strictly smaller gives t, otherwise f.

Answered cases to consult:
CCc1c(OC)nc2nc(-c3nc(C)c(C)s3)cn2c1C ... f
CCc1nnc(-c2cn3c(C)c(CC)c(OC)nc3n2)o1 ... f
CCc1c(SC)nc2nc(-c3nc(C)cs3)cn2c1C ... t

**Q:** Field: below-cutoff. Rule: recorded IC50 strictly less than 200 nM. Subject: C=CCc1c(OC)nc2nc(-c3noc(C)n3)cn2c1C
**A:** f

**Q:** Strictly below 200 nM: is that where IC50 of CCc1c(OC)nc2nc(-c3cc(C)no3)cn2c1C sits?
**A:** f

**Q:** Answer whether the molecule CCc1c(OC)nc2nc(-c3cc(C)[nH]n3)cn2c1C has IC50 strictly less than 200 nM
**A:** f

**Q:** Hello, is IC50 of the following molecule strictly smaller than 200 nM? CCc1c(OC)nc2nc(-c3nc(C)cs3)cn2c1C
**A:** t

* * *

Record form. Attribute: minimal effective dose. Fill in for each entry.
- Test system: Rattus norvegicus
- EXPERIMENTAL DETAILS: Minimum effective dose on oral administration
- Format: functional
- SETTINGS: read-out: MED

CCc1c(OC)nc2nc(-c3cnco3)cn2c1C ... > 50 mg/kg
CCc1c(OC)nc2nc(-c3nnc(-c4ccccc4)o3)cn2c1C ... > 50 mg/kg

Okay, now this compound:
**Q:** Return reported minimal effective dose. Input compound: COc1nc2nc(-c3nc(C)cs3)cn2c2c1CCCC2
**A:** > 50 mg/kg

* * *

- MEASURED ON: GABA-A receptor; anion channel
- EXPERIMENTAL DETAILS: Binding affinity towards benzodiazepine receptor by the displacement of [3H]flunitrazepam from rat brain preparations.
Give measured pIC50 for each item. Keep answers brief.
Numbers only, as −log10 of the molar value.

Field: example entries. Status: answers known.
CCc1c(OC)nc2nc(-c3nc(C(F)(F)F)cs3)cn2c1C ... 5.70
COc1nc2nc(-c3nc(C)cs3)cn2c2c1CCCC2 ... 7.66
CCc1c(SC)nc2nc(-c3nnc(C)o3)cn2c1C ... 6.49
CCc1c(OC)nc2nc(-c3nnco3)cn2c1C ... 5.00
CCOC(=O)c1csc(-c2cn3c(C)c(CC)c(OC)nc3n2)n1 ... 5.55
C=CCc1c(OC)nc2nc(-c3nc(C)cs3)cn2c1C ... 7.00
COc1nc2nc(-c3noc(C)n3)cn2c2c1CCCC2 [TANIPLON] ... 6.25
CCCc1c(OC)nc2nc(-c3nc(C)cs3)cn2c1C ... 7.00

For each of the compounds below, state pIC50.
1. CCc1c(OC)nc2nc(-c3noc(C)n3)c(Br)n2c1C
2. CCc1c(OC)nc2nc(-c3noc(C)n3)c(Cl)n2c1C
3. C=CCc1c(OC)nc2nc(-c3nnc(C)o3)cn2c1C
4. CCc1c(OC)nc2nc(-c3cnco3)cn2c1C

**A:**
5.00
5.00
5.60
5.60
